# Assay Protocol: Evaluation of pharmacokinetic parameters for Felodipine following multiple oral administration of Felodipine immediate-release tablets
# Type: ADME, organism-based
# Set-up: dose 10 mg, route oral
# Experimental Context: human, in vivo, 10 mg, dosed compound id 10, dosed compound name FELODIPINE, gender male and female, regimen Once daily, tissue Plasma
Assay Readout: Cmax (nM)
Numbers only, in nM.

Can you look up the measured Cmax of CCOC(=O)C1=C(C)NC(C)=C(C(=O)OC)C1c1cccc(Cl)c1Cl (stereo unspecified) [FELODIPINE] for me?
20

###

# Tested on: Homo sapiens
# Assay Protocol: Evaluation of pharmacokinetic parameters for Felodipine following single oral administration of Felodipine immediate or extended-release tablets
# Type: ADME, organism-based
# Set-up: dose 10 mg, dose 20 mg, route oral
# Experimental Context: in vivo, po, dosed compound id 10, dosed compound name FELODIPINE, gender male and female, regimen Single dose, tissue Plasma
Assay Readout: Cmax (nM)
Answers are plain numbers, in nM.

Value lookup for Cmax; key = CCOC(=O)C1=C(C)NC(C)=C(C(=O)OC)C1c1cccc(Cl)c1Cl (stereo unspecified) [FELODIPINE]
23
